Target: anti-CD28 Fab (SEQ ID NOs: 202, 203)
Sequence (VH, as listed by the source, chain 1 of 2): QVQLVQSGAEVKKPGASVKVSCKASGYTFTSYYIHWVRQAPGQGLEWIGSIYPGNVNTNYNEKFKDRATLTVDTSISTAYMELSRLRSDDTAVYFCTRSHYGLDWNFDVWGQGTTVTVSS
Sequence (VL, as listed by the source, chain 2 of 2): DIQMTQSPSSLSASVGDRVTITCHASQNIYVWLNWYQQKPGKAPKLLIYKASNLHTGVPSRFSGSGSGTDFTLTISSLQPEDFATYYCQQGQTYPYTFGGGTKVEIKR
Assay: phage ELISA, Fab on plate;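 note: ELISA of crude clonal phage supernatants on the plate, wells preloaded with CD28 antigen or only blocking buffer, captured phage read out via HRP-linked anti-M13 antibody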
Kindly supply the reported Anti-CD28 Fab signal values for the records listed here.
Enter a number only.

INPUT: Find the recorded Anti-CD28 Fab signal belonging to RCAAVFSYTWPPCL [Phage-1171] and report it.
OUTPUT: 1.29

INPUT: Find the recorded Anti-CD28 Fab signal belonging to TCSAGATYKWPVCL [Phage-1112] and report it.
OUTPUT: 1.47

INPUT: Find the recorded Anti-CD28 Fab signal belonging to TCAAGAVWTWPICF [Phage-1183] and report it.
OUTPUT: 1.23

INPUT: Find the recorded Anti-CD28 Fab signal belonging to SCAAGATYTWPFCL [Phage-1170] and report it.
OUTPUT: 1.29

INPUT: Find the recorded Anti-CD28 Fab signal belonging to TCAAGATYMWPVCL [Phage-1180] and report it.
OUTPUT: 1.24

INPUT: Find the recorded Anti-CD28 Fab signal belonging to LCAAGATYPWPICL [Phage-1115] and report it.
OUTPUT: 1.46

INPUT: Find the recorded Anti-CD28 Fab signal belonging to TCAAGATYSWPDCF [Phage-1102] and report it.
OUTPUT: 1.51

INPUT: Find the recorded Anti-CD28 Fab signal belonging to SCAEVFNYVWPFCF [Phage-1161] and report it.
OUTPUT: 1.32

Source: patent US20260274955A1
